Each entry below carries its recorded melting point.
Property: melting point

• CCCn1cc(C(=O)OCC)c(=O)c2cc(F)c(-n3cccc3)cc21 = 128 to 130 °C
• CN(Cc1ccccc1)C1(C#N)CCN(Cc2ccccc2)CC1 = 67 to 68 °C
• Cc1csc(C(=O)C2C(=O)N(C(N)=O)c3cc(F)cnc32)c1 (stereo not given) = > 250 °C
• Cc1cccc(-c2nc(C(C)C)[nH]c2-c2cccc(-c3cnn(C)c3)c2)n1 = 84 to 86 °C
• CNc1ccc(C(C)(C)c2ccc(C(C)(C)c3ccc(NC)cc3)cc2)cc1 = 115 to 122 °C

###

Each entry below carries its recorded melting point.
Property: melting point

* CC(C)COC(=O)N1CCN(c2c(C(=O)N3CCN(C)CC3)c3ccccc3n2-c2ccccc2)CC1 | 132 to 133 °C
* CC(=O)N(Cc1ccc2c(c1)OCO2)c1ccc(Oc2ccccc2)cc1 | 75 to 76 °C
* CC(=O)Nc1ccc(N)c2c1C(=O)C(O)(c1ccc(C(C)C)cc1O)C2=O (stereo unspecified) | 278 to 280 °C
* Cc1ccc(OC2CCN(C(=O)C(=O)Nc3ccc4[nH]c(=O)[nH]c4c3)CC2)cc1 | 294 °C
* SC1=NC2(CO1)COC(S)=N2 | 200 to 202 °C
* CCCC(=O)Nc1n[nH]c2cc(C(F)(F)F)ccc12 | 200 °C
* CCc1nc(-c2ccc(Cl)cc2)c(CCC(=O)O)o1 | 160 to 161 °C
* O=C1C2CCCCN2C(=O)N1c1c(F)cc(Cl)c2nc(Cl)sc12 (stereo unspecified) | 168 to 170 °C
* O=C(Cc1ccc(OCc2ccccc2)cc1)Nc1nnc(-c2cccc(Oc3cccc(C(F)(F)F)c3)c2)s1 | 194 to 195 °C
* Cc1ccc(C(=S)CCCCCC#N)cc1 | 49.5 to 51 °C
* Cc1cc(=O)n(-c2ccccc2)c2[nH]n(-c3ccccc3)c(=O)c12 | 145 to 147 °C
* CC(=O)C(=CN(C)C)C(=O)c1ccccc1 | 81 to 83 °C
* CC(C)Oc1cc(CCC(=O)NS(=O)(=O)c2ccc(C(F)(F)F)cc2)n(Cc2ccc(Cl)cc2Cl)n1 | 167 to 169 °C
* CCCC(O)c1cc(C)cc(C)c1C=CC1OCC(C)(C)CO1 (stereo unspecified) | 56 to 59 °C
* NC(=O)Cc1ccc2c(c1)CCc1ccccc1O2 | 205 to 206 °C
* NC(=O)c1sc2nc(N3CCC(NCC(O)c4cccc5c4OCO5)CC3)cc(C(F)(F)F)c2c1N (stereo unspecified) | 221 to 223 °C
* CCN(CC)C(=O)Oc1nc(-c2ccccc2)cc2ccccc12 | 81 °C
* CCN(CC)c1ccc2c(c1)OC(=O)C(C)(C#Cc1ccccc1)C2 (stereo unspecified) | 142 to 144 °C
* COc1ccc2c(c1)C(N1C(=O)c3ccccc3C1=O)C(=O)N2c1ccc(F)cc1 (stereo unspecified) | 208 to 210 °C
* CC(C)S(=O)(=O)n1c(N)nc2ccc(C(=CC(N)=O)c3ccccc3)cc21 | 211 to 212 °C
* Nc1nc2c(sc(=O)n2COCCO)c(=O)[nH]1 | 230 to 232 °C

###

Property: melting point

• COc1cc(C2CCN(C(=O)C3CCN3)CC2)ccc1Nc1ncc2ccc(-c3ccccc3N(C)S(C)(=O)=O)n2n1 (centres undefined) = 111 to 116 °C
• CC12CCC=CC1=CCC1C2CCC2(C)C(OS(=O)(=O)C(F)(F)F)=CCC12 (centres undefined) = 75 to 76 °C
• O=c1[nH]c(=Cc2ccc(OCc3ccccc3)cn2)c(=O)[nH]c1=Cc1cccc(Cl)c1 = 236 to 237 °C
• O=C1OC(CN2CCC3(CC2)C(=O)NCN3c2ccccc2)CN1c1ccccc1 (centres undefined) = 166 to 168 °C
• COC(COc1ccc(Oc2ccccc2)cc1)OC = 76.7 °C
• CCNc1cc2c(cc1Cl)CCN(C)C[C@@H]2c1ccccc1 = 120 to 121 °C
• NC(=O)CNC(=O)c1cccc(-c2c(F)ccc3cc(Cc4cccc(C(F)(F)F)c4)sc23)c1 = 130 to 131 °C
• COCCOc1ccc(CCCOC(=O)NS(=O)(=O)NCCOC(C)C)c(Oc2ncc(C(F)(F)F)cc2Cl)c1 = 114 °C
• CC(=O)Nc1c(OC(C)=O)cc(C)c(C)c1[N+](=O)[O-] = 209 to 211 °C

###

Each entry below carries its recorded melting point.
Property: melting point

• CSc1cccc2nc(SCCN3CCN(CC(=O)Nc4c(C(C)C)cccc4C(C)C)CC3)oc12 = 120 to 121 °C
• O=C(OCc1ccc(-c2ccc(N3C[C@H](Cn4ccnn4)OC3=O)cc2F)cn1)N1CCOCC1 = 131 to 133 °C
• O=C(O)c1ccc(COc2ccccc2)nc1C(=O)O = 270 °C
• COc1cc2c(c(Cl)c1Cl)C(=O)C(C)(c1ccc(Br)cc1)C2 (stereo not given) = 200 to 203 °C
• C=Cc1ccc(CSc2ccccc2C(=O)O)cc1 = 207 to 209 °C

###

Property: melting point (°C)

* CCOC(=O)C(C)(C)NC(=O)c1ccc(S(=O)(=O)n2c(=O)n(C3CCCCC3)c3cc(OCC)ccc32)c(OC)c1 | 202
* CCCCc1nc(=O)n2nc(-c3ccco3)cc2[nH]1 | 190

###

Property: melting point

- Cn1cncc1C(O)(c1ccc(Cl)cc1)c1ccc2nc(C=CC(N)=O)cc(-c3cccc(Cl)c3)c2c1 (stereo not given): 80 °C
- Cc1cc(-c2nc3c(Cl)cccc3c(=O)[nH]2)cc(C)c1OCCN1CCCC1: 216 to 217 °C
- CNc1ncc([N+](=O)[O-])c(Cl)n1: 172 to 173 °C
- Cc1cc(C)nc(NC(=O)NS(=O)(=O)c2ccccc2C(F)F)n1: 190 to 195 °C
- CC(=O)OC1N=C(c2ccccc2)c2cc(Cl)ccc2-c2c1nc(C)[nH]c2=O (stereo not given): > 320 °C

###

Property: melting point

• CC(C)(C)OC(=O)[C@@H]1CCCN2C(=O)CC[C@H](NC(=O)c3ccccc3)C(=O)N12 = 74 to 76 °C
• O=c1nc(-c2ccccc2)c2cc([N+](=O)[O-])sc2n1CC1CC1 = 216 to 218 °C
• CCOC(=O)C1=C(N(C)C)N=C(C)C(C(=O)OCC)C1c1cccc(Cl)c1 (stereo not given) = 79 °C
• Cc1ccccc1NNC(=O)c1ccccc1C(F)(F)F = 55 to 57 °C
• CN(CCCCOc1ccc(CC2SC(=O)NC2=O)cc1)c1nc2ccccc2o1 (stereo not given) = 112 °C
• Cc1cc(Cl)c2c(O)c3c(=O)[nH][nH]c(=O)c3nc2c1 = 197 to 199 °C
• COc1ccc(N(C(=O)CN2C(=O)C(Cc3cc(C)nn3Cc3ccccc3)C(=O)N(c3ccccc3)c3ccccc32)C(C)C)cc1 (stereo not given) = 117 to 120 °C
• O=c1[nH]c(=O)n(C2CC2)c2c(OC(F)F)c(F)ccc12 = 215 to 221 °C
• C[C@H]1C(=O)Nc2ccc(Cl)cc2N1C(=O)Cl = 194 to 195 °C
• COc1ccc(C(=NOC(C)=O)c2ccccc2F)c(O)c1C = 83 to 86 °C
• CCOC(=O)Nc1cc(C(C)=O)c2c(c1)N(NC(C)c1ccccc1)c1ccccc1CC2 (stereo not given) = 144 to 152 °C
• O=C(NS(=O)(=O)C=Cc1ccc([N+](=O)[O-])cc1)c1ccccc1 = 192 to 195 °C
• Cc1nc(NC(=O)c2cnn3c(C(F)(F)F)cc(-c4ccc(C(F)(F)F)cc4)nc23)sc1S(=O)(=O)NC(C)(C)CO = 257 °C
• Cc1ccc(C23CCC(Cl)(CC2)CC3)cc1 = 105 °C
• O=c1c(Oc2ccc(-c3ccncc3)cc2)c(-n2ccnc2)cnn1-c1ccc(Cl)cc1 = 188 °C
• Cc1c(C(=O)Nc2ccc(N3CCC(N4CCOCC4)CC3)c(C#N)c2)cnn1-c1ccc(Cl)cc1 = 249 to 250 °C
• CN1C(=O)NC2(CCN(C(=O)OC(C)(C)C)CC2)C1=O = 206 to 208 °C
• CCN(CC)CC=CC(=O)Nc1cc2c(Nc3ccc(F)c(Cl)c3)ncnc2cc1OC1CCC1 = 111 °C
• CCOC(=O)c1c2n(c3cc(Br)c(F)cc3c1=O)CCS2 = 258 to 262 °C
• CN(C)S(=O)(=O)c1ccc2c(c1)C(O)c1ccccc1C=C2 (stereo not given) = 150 to 152 °C
• c1ccc(CN2CCC(NC3CCOCC3)CC2)cc1 = 60 °C
• COc1cccc(CNc2n[nH]c3ncnc(Nc4cccc(Cl)c4)c23)c1 = 192 to 193 °C
• O=Cc1csc(N2CCCCC2)n1 = 68 to 69 °C
• COc1ccc(N2CCN(c3c(C)c(C)c4c(c3C)C(c3ccc(C)cc3)C(C)(C)O4)CC2)cc1 (stereo not given) = 189 to 191 °C
• CCOC(=O)c1ccc(-c2ccc(-c3ccc(C(F)(F)F)cc3)s2)cc1 = 203 to 204 °C
• COc1ccc2[nH]c(SCc3nccc(N(C)C)n3)nc2c1 = 182 to 183 °C
• CCc1cccc2c(/C=C(\C)C(=O)O)cc(OC)c(OCOC)c12 = 127 to 128 °C
• CCc1nc2c(N)nc3ccccc3c2n1CCCCS(=O)(=O)c1ncccn1 = 172 to 175 °C
• O=C(O)c1c(Br)ccc(OCc2ccccc2Cl)c1OCc1ccccc1Cl = 156 to 158 °C
• COc1ccc(-c2c(C)ncc(C#N)c2Nc2cccc3[nH]ccc23)cc1OC = 182 to 183 °C
• Cc1cc(-c2cccc(Cl)c2C=O)ccc1F = 74 to 79 °C
• CCNC(=O)n1c([Si](C)(C)C)cc2ccccc21 = 96 to 99 °C
• c1ccc(-c2ccccc2OCCCCCCOc2ccccc2-c2ccccc2)cc1 = 92 to 95 °C
• OC1(c2ccc(Cl)c(Cl)c2)c2ccccc2C2=NCCCN21 (stereo not given) = 267 to 269 °C
• COc1cccc(C2SCCCS2)c1OC = 119 to 120 °C
• N#Cc1ccc(NC(=O)CCc2ccc(O)cc2)cc1 = 169 to 172 °C
• CCN1C(=O)CCCc2cc(Nc3ncc(Cl)c(Nc4ccccc4C(=O)NC)n3)c(OC)cc21 = 232 to 233 °C
• CCCCOC(=O)COc1ccc(C(=O)Nc2cccc(Cl)c2Cl)cc1 = 132 to 136 °C
• O=CNNc1ccc(NC(=S)Nc2ccc(NNC=O)cc2)cc1 = 212 to 214 °C
• O=C(N[C@H]1CCN(CCc2ccc(F)cc2)C1)C(C1CCCCC1)C1CCCCC1 = 122 to 124 °C

Data origin, for the record: a melting point compilation (Tetko et al.; mined from patent text by program, amines drawn as free bases though some values may be those of a salt)
